Parameter: CARBON DIOXIDE. Scope: all listed entries.
- Species: Rattus norvegicus
- assay_explanation: DrugMatrix - Regimen: Daily Repeat
- Type: toxicity, organism-based, Sprague-Dawley
- Set-up: regimen Daily Repeat, gender Male, age 6-8 weeks
- run_conditions: in vivo, po, 0 mg/kg, 120 h, tissue Plasma, route oral GAVAGE, dose level Control, time 5 day, vehicle 100 % WATER

- molecule: "C[C@]12Cc3c[nH]nc3C[C@@H]1CC[C@@H]1[C@@H]2CC[C@@]2(C)[C@H]1CC[C@]2(C)O"
  CARBON DIOXIDE / mmol/L: 31
- molecule: "NNC(=O)c1ccncc1"
  CARBON DIOXIDE / mmol/L: 25
- molecule: "CN1CCN(C(=O)OC2c3nccnc3C(=O)N2c2ccc(Cl)cn2)CC1 (stereo unspecified)"
  CARBON DIOXIDE / mmol/L: 32.33
- molecule: "COc1ccc(C(CN(C)C)C2(O)CCCCC2)cc1 (stereo unspecified)"
  CARBON DIOXIDE / mmol/L: 26.33
- molecule: "CN1CCC[C@H]1c1cccnc1"
  CARBON DIOXIDE / mmol/L: 28.33
- molecule: "NCC1(CC(=O)O)CCCCC1"
  CARBON DIOXIDE / mmol/L: 30
- molecule: "Cn1cnc([N+](=O)[O-])c1Sc1ncnc2nc[nH]c12"
  CARBON DIOXIDE / mmol/L: 34
- molecule: "CC(C)(S)[C@@H](N)C(=O)O"
  CARBON DIOXIDE / mmol/L: 32
- molecule: "O=C1NC(=O)C(c2ccccc2)(c2ccccc2)N1"
  CARBON DIOXIDE / mmol/L: 29.33
- molecule: "CC1COc2c(N3CCN(C)CC3)c(F)cc3c(=O)c(C(=O)O)cn1c23 (stereo unspecified)"
  CARBON DIOXIDE / mmol/L: 28.33
- molecule: "Fc1ccc([C@@H]2CCNC[C@H]2COc2ccc3c(c2)OCO3)cc1"
  CARBON DIOXIDE / mmol/L: 31
